# Tested on: Staphylococcus epidermidis
# method notes: Antimicrobial activity against Staphylococcus epidermidis 887E after 18 hrs by twofold agar dilution method
# Assay type: functional
# cond: read-out: MIC
Readings of MIC for the listed compounds
Give just the numeric value; µg/mL need not be written.

Before answering, review these 5 worked examples.
smiles structure	MIC / µg/mL
C[C@H](CO)[C@H]1CC[C@H]2[C@@H]3[C@H](N)C[C@H]4C[C@@H](NCCCNCCCCN)CC[C@]4(C)[C@H]3CC[C@]12C.Cl.Cl.Cl	32
C[C@H](CO)[C@H]1CC[C@H]2[C@@H]3CC[C@@H]4C[C@@H](NCCCNCCCCN)CC[C@]4(C)[C@H]3CC[C@]12C.Cl.Cl.Cl	32
C[C@H](CO)[C@H]1CC[C@H]2[C@@H]3CC[C@H]4C[C@H](NCCCNCCCCNCCCN)CC[C@]4(C)[C@H]3CC[C@]12C.Cl.Cl.Cl.Cl	8
C[C@H](CO)[C@H]1CC[C@H]2[C@@H]3CC[C@H]4C[C@@H](NCCCNCCCCNCCCN)CC[C@]4(C)[C@H]3CC[C@]12C.Cl.Cl.Cl.Cl	32
C[C@H](CO)[C@H]1CC[C@H]2[C@@H]3[C@H](O)C[C@H]4C[C@@H](NCCCNCCCCN)CC[C@]4(C)[C@H]3CC[C@]12C.Cl.Cl.Cl	32

The compound identified as "C[C@H](CO)[C@H]1CC[C@H]2[C@@H]3CC[C@H]4C[C@H](NCCCNCCCCN)CC[C@]4(C)[C@H]3CC[C@]12C.Cl.Cl.Cl" registered its MIC at 16

The compound identified as "C[C@H](CO)[C@H]1CC[C@H]2[C@@H]3[C@H](F)C[C@H]4C[C@@H](NCCCNCCCCN)CC[C@]4(C)[C@H]3CC[C@]12C.Cl.Cl.Cl" registered its MIC at 16

The compound identified as "C[C@H](CO)[C@H]1CC[C@H]2[C@@H]3CC[C@@H]4C[C@H](NCCCNCCCCNCCCN)CC[C@]4(C)[C@H]3CC[C@]12C.Cl.Cl.Cl.Cl" registered its MIC at 16

The compound identified as "C[C@H](CO)[C@H]1CC[C@H]2[C@@H]3CC[C@@H]4C[C@@H](NCCCNCCCCNCCCN)CC[C@]4(C)[C@H]3CC[C@]12C.Cl.Cl.Cl.Cl" registered its MIC at 4

The compound identified as "C[C@H](CO)[C@H]1CC[C@H]2[C@@H]3CC[C@H]4C[C@@H](NCCCNCCCCN)CC[C@]4(C)[C@H]3CC[C@]12C.Cl.Cl.Cl" registered its MIC at 16
